- Target: Sialic acid-binding Ig-like lectin 9 (Homo sapiens) (UniProt Q9Y336)
- Sequence (Q9Y336 whole entry): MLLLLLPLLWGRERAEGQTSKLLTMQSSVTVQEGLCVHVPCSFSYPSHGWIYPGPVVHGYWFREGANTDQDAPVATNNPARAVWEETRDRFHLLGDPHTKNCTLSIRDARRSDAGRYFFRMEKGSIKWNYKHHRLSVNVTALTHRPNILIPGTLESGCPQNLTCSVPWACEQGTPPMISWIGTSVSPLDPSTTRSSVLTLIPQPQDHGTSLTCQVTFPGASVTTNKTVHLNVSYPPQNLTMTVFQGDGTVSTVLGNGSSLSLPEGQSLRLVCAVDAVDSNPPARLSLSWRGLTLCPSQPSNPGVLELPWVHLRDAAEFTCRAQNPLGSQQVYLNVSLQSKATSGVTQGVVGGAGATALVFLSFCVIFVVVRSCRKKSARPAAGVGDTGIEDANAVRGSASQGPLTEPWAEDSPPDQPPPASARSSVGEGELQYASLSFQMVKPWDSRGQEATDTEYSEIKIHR
- Protocol Description: Hs-Siglec9 ALPHAscreen SOP 20170721
- Parameters: scale not given: direction of the effect not stated beside the values
- Assay Setup: 10 µM
// reported Percent Effect per item

{"columns": ["Molecule", "Target", "Percent Effect / %"],
 "data": [
  ["CCc1ccsc1C(=O)N1CCN(C(=O)CC(F)(F)F)CC1", "Sialic acid-binding Ig-like lectin 9 (Homo sapiens) (UniProt Q9Y336)", 11.7],
  ["CCNc1cc2c(nn1)CCN(C(=O)c1cc3nc(C)ccc3o1)C2", "Sialic acid-binding Ig-like lectin 9 (Homo sapiens) (UniProt Q9Y336)", 11.1],
  ["O=C(c1ccc(OCC2CC2)nc1)N1CCCC(n2cncn2)C1 (stereo not given)", "Sialic acid-binding Ig-like lectin 9 (Homo sapiens) (UniProt Q9Y336)", -4.65],
  ["CCN1CCC2(C=C(C(=O)NC3CC3)c3ccccc32)CC1", "Sialic acid-binding Ig-like lectin 9 (Homo sapiens) (UniProt Q9Y336)", -1],
  ["Cc1noc(C2CCN(C(=O)c3ccc(N(C)C)nc3)CC2)n1", "Sialic acid-binding Ig-like lectin 9 (Homo sapiens) (UniProt Q9Y336)", -5.05],
  ["CCS(=O)(=O)N(C)CC(=O)Nc1ccc(Br)cn1", "Sialic acid-binding Ig-like lectin 9 (Homo sapiens) (UniProt Q9Y336)", 0.132],
  ["Cn1ccnc1CN1CCCC1c1noc(C2CC2)n1 (stereo not given)", "Sialic acid-binding Ig-like lectin 9 (Homo sapiens) (UniProt Q9Y336)", -0.931],
  ["CCC1CN(C(=O)c2ccccc2N2CCCC2)CCN1C(C)C (stereo not given)", "Sialic acid-binding Ig-like lectin 9 (Homo sapiens) (UniProt Q9Y336)", -0.153],
  ["CC(C)(C)c1n[nH]c(C2CN(C(=O)c3ccsc3)CCO2)n1 (stereo not given)", "Sialic acid-binding Ig-like lectin 9 (Homo sapiens) (UniProt Q9Y336)", 5.72],
  ["CC(C)c1noc(CCC(=O)NCC2CCS(=O)(=O)C2)n1 (stereo not given)", "Sialic acid-binding Ig-like lectin 9 (Homo sapiens) (UniProt Q9Y336)", 0.895]
]}

* * *

- Target: AMP-activated protein kinase, AMPK (Homo sapiens) (UniProt P54646+O43741+P54619+Q9UGJ0+Q9Y478+Q13131+Q9UGI9)
- Protocol Description: AMP-dependent Kinase enzyme assay. An in vitro enzyme assay that detects ADP turnover that is directly proportional to AMPK activity. This uses naive AMPK that is activated during the assay with MK-8722
- Format: functional
- Design: scale not given: direction of the effect not stated beside the values
- Assay Setup: 30 µM

{"columns": ["Molecule", "Percent Effect, %"],
 "data": [
  ["c1cnc(N2CCCC(Cc3nccs3)C2)nc1 (centres undefined)", 0.818],
  ["O=C(Cc1nc(-c2ccncc2)n[nH]1)NCCCN1CCOCC1", -0.0149],
  ["CC(C)(C)Oc1ccc(NCC(=O)NCc2ccco2)cc1", 9.8],
  ["Cc1cc(CN(C)C(=O)CNS(=O)(=O)c2cccs2)no1", 7.18],
  ["CC1CCCCN1C(=O)COc1nc(C(C)(C)C)no1 (centres undefined)", -0.675],
  ["Cc1csc(N2CCC(CCN3CCCC3=O)CC2)n1", -12.1],
  ["Cc1c(CN2CCc3[nH]cnc3C2C2CC2)[nH]c2ccc(F)cc12 (centres undefined)", 3.62],
  ["CCC(C(=O)NCc1nc(C)cc(C(F)(F)F)n1)n1cccn1 (centres undefined)", 4.67],
  ["CCN(Cc1cccnc1)C1CCN(c2ccccc2)C1=O (centres undefined)", -2.42],
  ["COc1ccccc1OCc1nc2cc3c(cc2c(=O)o1)OCCCO3", -8.93],
  ["CCN(Cc1cccc2c1OCCO2)C(=O)NC(C)(C)C", -7.11],
  ["CCOc1ccc(Cl)cc1CCNC(=O)Cn1ccccc1=O", 16.7],
  ["Cc1nn(C)c2ncnc(NCc3nncn3C3CCCCC3)c12", 10.1],
  ["COc1c(C)cnc(CN2CCn3c(C)nnc3C2)c1C", 8.91],
  ["CS(=O)(=O)N1CCCCC1c1ccc(Nc2cnccn2)nc1 (centres undefined)", 4.25],
  ["Cc1cccc(C(=O)N2CC(=O)N(c3ccccc3Cl)CC2C)n1 (centres undefined)", 20.1],
  ["Cn1ncnc1NCc1ccc(F)cc1", -10.9],
  ["CN(C)Cc1cnn(-c2ccccc2C(=O)NCCC2CCCN2C)c1 (centres undefined)", 5.44],
  ["O=C(Cc1ccon1)NC1CCCN(c2ccccc2F)C1=O (centres undefined)", 1.71]
]}

* * *

- Target: Chromo domain-containing protein 1 (Saccharomyces cerevisiae (strain ATCC 204508 / S288c) (Baker's yeast))
- Protocol Description: ScCHD-1 Enzyme Inhibition Assay; also: in the data most compounds retested in dose-response had high values
- Type: functional
- Set-up: scale not given: direction of the effect not stated beside the values
- Assay Setup: 30 µM
Collected Percent Effect values appear next to each entry.

{"columns": ["Compound", "Readout Units", "Percent Effect"],
 "data": [
  ["CCc1[nH]ncc1C(=O)N1CCCC(n2nc(C)nc2C)C1 (configuration not stated)", "%", -10.4],
  ["COc1cccc2c1OCC(C(=O)N1CCC(N3CCOC3=O)CC1)C2 (configuration not stated)", "%", -5.88],
  ["COC(=O)NCc1cc2n(n1)CCCN(C(C)=O)C2", "%", -3.29],
  ["Cc1cncc(C2CCCN(Cc3cccn3C)C2)n1 (configuration not stated)", "%", -15.4],
  ["NC(=O)NC(=O)CCN1CCCN(c2nccs2)CC1", "%", -7.5],
  ["Cc1cnc(N2CCC3(CCN(CC4CC4)C3=O)CC2)nc1", "%", -11.4],
  ["CN(C)c1ccc(NC(=O)NCc2ccccn2)cn1", "%", -9.39],
  ["Cc1nn(C)c(N(C)C)c1CNC(C)COc1cccc(F)c1 (configuration not stated)", "%", -2.29],
  ["CCc1nccn1C1CCCN(C(=O)Cc2ccc(OC)c(F)c2)C1 (configuration not stated)", "%", -9.19],
  ["CC(C)CN1CCC2(CCN(Cc3ccoc3)CC2)C1=O", "%", -9.31],
  ["Cc1cc2c(cc1C(=O)N1CC[C@H](CO)[C@@H](O)C1)OCCO2", "%", -4.74],
  ["Cc1cnn(CC2CCCN2C(=O)c2ccc(C(N)=O)cn2)c1 (configuration not stated)", "%", -6.88],
  ["Cc1ccc(NC2CCN(C(=O)c3n[nH]c4ccccc34)CC2)nn1", "%", -6.5],
  ["CC(C)c1cc(N2CCN(c3ccc(O)cc3)CC2)n2nccc2n1", "%", -3.77],
  ["CN1CC(c2ccccc2)CC2(CCN(CC(=O)N(C)C)CC2)C1 (configuration not stated)", "%", -2.37],
  ["O=C1C[C@H]2[C@@H](CCN2C(=O)Cc2cccs2)N1Cc1cccnc1", "%", -3.4],
  ["Cc1nc(C)n(CC2CCCN2Cc2nc3ccccc3nc2C)n1 (configuration not stated)", "%", -11.7],
  ["CS(=O)(=O)NCC1CCCN(C(=O)COCC(F)(F)F)C1 (configuration not stated)", "%", -7.07],
  ["CC(C)c1nnc2n1CCN(C(=O)c1ccc3cc[nH]c3c1)C2", "%", -9.74],
  ["O=C(NCCc1coc(-c2ccc(F)cc2)n1)NC1CCC(O)CC1 (configuration not stated)", "%", -15.6],
  ["COc1ccc(CNC(=O)N2CCC(Cc3cnn(C)c3)C2)cc1C (configuration not stated)", "%", -4.08],
  ["Cc1ccoc1-c1nnc(CN2CCn3c(nnc3C3CC3)C2)o1", "%", -2.12],
  ["COCCCN1CC2(CCCCN2C(=O)c2ccsc2)CC1=O (configuration not stated)", "%", 2.21],
  ["Cc1noc(C(C)C)c1C(=O)NCCCN1CCCC1", "%", -13.2],
  ["CCC(O)CN1CCN(C(=O)c2sccc2OC)CC1 (configuration not stated)", "%", -3.7],
  ["CN(C)C(=O)N1C[C@H]2CCC[C@@]2(COc2ccccn2)C1", "%", -2.37],
  ["Cc1nc(C)n(CC2CCCN2Cc2nc3ccccc3n2C)n1 (configuration not stated)", "%", -12.7],
  ["CNc1snc(C)c1C(=O)N1CCCC(n2ccnc2C(C)C)C1 (configuration not stated)", "%", -1.07],
  ["COc1cccc(CN2CCCC3(CCN(C(=O)[C@H]4CCCO4)C3)C2)c1 (some centres not stated)", "%", -10.7],
  ["CS(=O)(=O)N1CCC[C@]2(C[C@@H](Oc3ncccc3F)CO2)C1", "%", 1.06],
  ["COc1ccc(OC)c(Sc2ncccc2C(=O)N(C)CCC#N)c1", "%", -12.2],
  ["CNC(=O)N1C[C@H]2C[C@H](C(=O)Nc3ccccc3)[C@@H](C1)O2", "%", 13.9],
  ["CN(CC1CCCCC1)C(=O)c1ccc(-n2ncc(C#N)c2N)cc1", "%", -3.77],
  ["COCCc1ncc(CN2CCC(Oc3ccccc3C)CC2)cn1", "%", -22.7],
  ["COCCN1CCN(Cc2ccc(F)c(C)c2)[C@H]2CS(=O)(=O)C[C@H]21", "%", -4.27],
  ["CCNC(=O)[C@@H]1C[C@@H](NC(=O)c2cccnc2O)CN1Cc1ccsc1", "%", -4.37],
  ["O=C1CC(c2ccccc2)C2(CCN(Cc3ccccn3)CC2)N1 (configuration not stated)", "%", -9.1],
  ["Cc1cccc(-c2noc(CN3CCCC3Cn3cccn3)n2)c1 (configuration not stated)", "%", -6.03],
  ["Nc1nc2nc(C3CCCN(C(=O)c4cscn4)C3)ccc2s1 (configuration not stated)", "%", -22.1],
  ["CC1(C)OCC(CNC(=O)c2cnn(-c3cc(Cl)ccc3Cl)c2N)O1 (configuration not stated)", "%", -20.1],
  ["CC(C)(C)C(O)CN1CCN(C(=O)c2cccc3ncccc23)CC1 (configuration not stated)", "%", -6.72],
  ["Cc1cccc(CN2C(=O)CCC23CCN(Cc2cccn2C)CC3)n1", "%", -11.1]
]}
